The reported numbers originate from the Human Domainome abundance scans (Beltran et al. 2025).

B1: Tyrosine-protein kinase Lck, residues 63 to 120; numbered along this chain, P06239 (parent)
chain: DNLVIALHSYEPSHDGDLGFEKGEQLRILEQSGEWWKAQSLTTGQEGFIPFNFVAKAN

Variants of: B1
Experiment: abundance fitness (aPCA) (normalised: wild type 0, dead -1); higher = more abundant; growth selection in yeast, the domain comes from the species named
Conditions: Homo sapiens
measured_metric: abundance fitness
Give bare numbers.

Below, each entry is followed by its recorded abundance fitness result.
> print(dat)
   change    measured.metric  endpoint.value
1     I5M  abundance fitness           -0.26
2    G16I  abundance fitness          -0.322
3     L7R  abundance fitness          -0.298
4    E30K  abundance fitness          -0.248
5    F48W  abundance fitness           0.075
6    D17V  abundance fitness          -0.111

Lab note: each variant below needs its abundance fitness filled in.
1. F20P
2. A6D
3. I49H
4. S9C

-- reply
-0.818
-0.907
-0.794
-0.25

Lab note: each variant below needs its abundance fitness filled in.
1. S13C
2. I28C
3. E21P
4. G47F
5. E30V
6. Q45I
7. S9E
8. Q25A

-- reply
-0.047
-0.658
-0.914
-0.982
-0.17
-0.662
-0.218
-0.165
